Source listed as paper PMC12386606.

# Test system: HBMEC cells
# measurement-description: Blood–brain barrier transport study in HBMEC Transwell monolayer
# test-context: AerExt 40 µg mL^−1 apical; 4 h; n.q. = not quantified in the basolateral compartment

[
  {
    "compound": "COc1cc2ccc(=O)oc2cc1O [7-hydroxy-6-methoxycoumarin]",
    "unit-abbrev": "%",
    "AerExt Te (%) ± SD 4 h": 1.9
  },
  {
    "compound": "COc1cc(/C=C/C(=O)O)ccc1O [Ferulic acid]",
    "unit-abbrev": "%",
    "AerExt Te (%) ± SD 4 h": 1.9
  },
  {
    "compound": "c1ccc2c(c1)[nH]c1cnccc12 [Norharman]",
    "unit-abbrev": "%",
    "AerExt Te (%) ± SD 4 h": 5.3
  },
  {
    "compound": "C=C(C)[C@@H]1CC[C@@]2(C)CCC(=O)C(C)=C2C1 [α-cyperone]",
    "unit-abbrev": "%",
    "AerExt Te (%) ± SD 4 h": 25.1
  },
  {
    "compound": "COc1ccc(O)c(C=O)c1 [2-hydroxy-5-methoxybenzaldehyde]",
    "unit-abbrev": "%",
    "AerExt Te (%) ± SD 4 h": 9.1
  },
  {
    "compound": "O=c1cc(-c2ccc(O)cc2)oc2cc(O)cc(O)c12 [Apigenin]",
    "unit-abbrev": "%",
    "AerExt Te (%) ± SD 4 h": 5.1
  },
  {
    "compound": "O=Cc1ccc(O)cc1 [4-hydroxybenzaldehyde]",
    "unit-abbrev": "%",
    "AerExt Te (%) ± SD 4 h": 18.5
  },
  {
    "compound": "O=C(O)c1cccc(O)c1O [2,3-dihydroxybenzoic acid]",
    "unit-abbrev": "%",
    "AerExt Te (%) ± SD 4 h": 9.6
  },
  {
    "compound": "C=C1CC[C@H]2O[C@]2(C)CC[C@@H]2[C@@H]1CC2(C)C [(–)-caryophyllene oxide]",
    "unit-abbrev": "%",
    "AerExt Te (%) ± SD 4 h": 8.6
  }
]
